The reported numbers originate from ChEMBL document CHEMBL1157490.

Target: Integrin alpha-4/beta-1 (Homo sapiens, UniProt P05556+P13612)
Sequence (P05556 whole entry): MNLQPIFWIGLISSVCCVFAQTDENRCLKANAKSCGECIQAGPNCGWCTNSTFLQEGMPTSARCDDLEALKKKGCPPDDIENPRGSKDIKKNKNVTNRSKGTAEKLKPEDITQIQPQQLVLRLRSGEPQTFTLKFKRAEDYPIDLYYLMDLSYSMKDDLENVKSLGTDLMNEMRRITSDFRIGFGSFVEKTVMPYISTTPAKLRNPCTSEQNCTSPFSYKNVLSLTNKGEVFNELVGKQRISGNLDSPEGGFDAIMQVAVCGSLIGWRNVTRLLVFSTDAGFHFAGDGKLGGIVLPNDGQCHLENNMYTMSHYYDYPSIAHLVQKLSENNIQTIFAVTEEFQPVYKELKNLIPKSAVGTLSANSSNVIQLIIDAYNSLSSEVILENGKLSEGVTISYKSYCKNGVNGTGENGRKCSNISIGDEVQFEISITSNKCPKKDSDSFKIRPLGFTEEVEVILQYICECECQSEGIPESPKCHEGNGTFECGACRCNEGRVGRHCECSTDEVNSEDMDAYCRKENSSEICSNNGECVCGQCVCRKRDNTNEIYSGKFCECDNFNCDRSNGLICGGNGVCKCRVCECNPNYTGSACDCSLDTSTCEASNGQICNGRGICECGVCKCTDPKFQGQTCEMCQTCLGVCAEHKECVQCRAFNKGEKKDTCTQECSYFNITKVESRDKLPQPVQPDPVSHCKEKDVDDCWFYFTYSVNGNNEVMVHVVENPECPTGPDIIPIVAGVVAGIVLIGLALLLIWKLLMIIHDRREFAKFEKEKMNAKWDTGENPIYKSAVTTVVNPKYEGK
Sequence (P13612 whole entry): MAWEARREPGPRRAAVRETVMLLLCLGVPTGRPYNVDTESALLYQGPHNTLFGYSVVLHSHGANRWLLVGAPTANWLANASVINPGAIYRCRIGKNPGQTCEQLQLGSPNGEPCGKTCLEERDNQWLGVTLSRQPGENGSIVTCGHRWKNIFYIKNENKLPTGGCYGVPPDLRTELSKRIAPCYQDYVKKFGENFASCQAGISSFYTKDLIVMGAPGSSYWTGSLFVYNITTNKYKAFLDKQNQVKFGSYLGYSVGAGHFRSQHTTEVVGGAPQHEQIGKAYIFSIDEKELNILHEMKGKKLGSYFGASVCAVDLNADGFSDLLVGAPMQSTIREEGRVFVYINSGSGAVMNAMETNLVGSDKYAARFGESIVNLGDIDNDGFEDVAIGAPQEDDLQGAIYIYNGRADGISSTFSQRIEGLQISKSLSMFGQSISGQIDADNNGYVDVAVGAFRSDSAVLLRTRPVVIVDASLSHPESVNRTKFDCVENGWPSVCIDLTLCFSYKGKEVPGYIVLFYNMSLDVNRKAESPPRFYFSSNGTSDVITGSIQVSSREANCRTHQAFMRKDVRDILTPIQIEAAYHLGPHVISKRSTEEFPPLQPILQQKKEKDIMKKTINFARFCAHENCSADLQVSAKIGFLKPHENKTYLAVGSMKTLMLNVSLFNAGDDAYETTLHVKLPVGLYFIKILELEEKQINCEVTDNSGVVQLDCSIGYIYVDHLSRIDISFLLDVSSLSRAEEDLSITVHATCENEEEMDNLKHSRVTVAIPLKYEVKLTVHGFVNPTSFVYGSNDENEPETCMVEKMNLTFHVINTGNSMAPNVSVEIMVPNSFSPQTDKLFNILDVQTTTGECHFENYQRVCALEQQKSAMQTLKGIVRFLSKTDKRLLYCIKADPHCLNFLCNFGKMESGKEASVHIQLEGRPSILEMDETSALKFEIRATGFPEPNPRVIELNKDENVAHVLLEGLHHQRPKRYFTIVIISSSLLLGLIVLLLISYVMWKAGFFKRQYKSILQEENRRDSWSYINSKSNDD
Assay: Inhibition of integrin alpha4beta1 receptor in human whole blood by flow cytometry
reported.metric: IC50 (nM)

Use these answered entries as a reference point.
1. O=C(O)[C@H](Cc1ccc(-n2c(-c3cccnc3)nc3cnccc32)cc1)NC1=C(Br)C(=O)C12CCCCC2    236
2. CSC1=C(N[C@@H](Cc2ccc(-n3c(-c4cccnc4)nc4cccnc43)cc2)C(=O)O)C2(CCCCC2)C1=O    2
3. O=C(O)[C@H](Cc1ccc(-n2c(-c3ccccc3)nc3cccnc32)cc1)NC1=C(Br)C(=O)C12CCCCC2    71

[1] O=C(O)[C@H](Cc1ccc(-n2c(C3(C(F)(F)F)CC3)nc3cccnc32)cc1)NC1=C(Br)C(=O)C12CCCCC2
[2] O=C(O)[C@H](Cc1ccc(-n2c(C3CCNCC3)nc3cccnc32)cc1)NC1=C(Br)C(=O)C12CCCCC2
[3] CC1(C)C(=O)C(Cl)=C1N[C@@H](Cc1ccc(-n2c(-c3cccnc3)nc3cccnc32)cc1)C(=O)O
rank_up(items): orders items by reported IC50 in ascending numerical order. Order the labels as requested and give them as your answer.
1, 2, 3

[A] O=C(O)[C@H](Cc1ccc(-n2c(C3CCCC3)nc3cccnc32)cc1)NC1=C(Br)C(=O)C12CCCCC2
[B] O=C(O)[C@H](Cc1ccc(-n2c(-c3cccnc3)nc3cccnc32)cc1)NC1=C(Cl)C(=O)C12CCCCC2
[C] O=C(O)[C@H](Cc1ccc(-n2c(-c3cccnc3)nc3cccnc32)cc1)NC1=C(Br)C(=O)C12CCCCC2
[D] O=C(O)[C@H](Cc1ccc(-n2c(C(F)(F)F)nc3cccnc32)cc1)NC1=C(Br)C(=O)C12CCCCC2
Rank descending by IC50. Labels, requested order.
D, A, B, C

====

Target: Cytochrome P450 2D6 (Homo sapiens, UniProt P10635)
Sequence (P10635 whole entry): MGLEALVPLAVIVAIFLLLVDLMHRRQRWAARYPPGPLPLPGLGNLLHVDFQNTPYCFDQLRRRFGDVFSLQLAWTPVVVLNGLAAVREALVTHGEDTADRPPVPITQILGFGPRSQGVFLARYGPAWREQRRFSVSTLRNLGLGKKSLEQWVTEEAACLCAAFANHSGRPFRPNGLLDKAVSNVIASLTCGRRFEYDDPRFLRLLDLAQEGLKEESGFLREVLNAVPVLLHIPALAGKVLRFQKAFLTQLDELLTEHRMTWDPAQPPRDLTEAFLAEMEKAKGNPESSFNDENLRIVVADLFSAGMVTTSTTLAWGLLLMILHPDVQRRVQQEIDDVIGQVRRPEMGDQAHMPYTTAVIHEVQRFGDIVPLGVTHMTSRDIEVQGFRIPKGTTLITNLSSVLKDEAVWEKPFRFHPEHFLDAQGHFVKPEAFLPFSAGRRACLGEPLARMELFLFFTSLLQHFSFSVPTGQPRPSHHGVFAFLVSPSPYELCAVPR
reported.metric: IC50

Quote IC50 with test system Cytochrome P450 2D6 (Homo sapiens, UniProt P10635) for `O=C(O)[C@H](Cc1ccc(-n2c(C3(C(F)(F)F)CC3)nc3cccnc32)cc1)NC1=C(Br)C(=O)C12CCCCC2`
> 100 µM

====

Assay: Metabolic stability in mouse microsomes assessed as intrinsic clearance at 0.5 uM
Format: ADME, Microsome
reported.metric: microsomal CLint at 0.5 µM (µL/min/mg)

1) O=C(O)[C@H](Cc1ccc(-n2c(C3(C(F)(F)F)CC3)nc3cccnc32)cc1)NC1=C(Br)C(=O)C12CCCCC2    15
2) O=C(O)[C@H](Cc1ccc(-n2c(-c3cccnc3)nc3cccnc32)cc1)NC1=C(Br)C(=O)C12CCCCC2    11
3) CC(C)c1nc2cccnc2n1-c1ccc(C[C@H](NC2=C(Br)C(=O)C23CCCCC3)C(=O)O)cc1    14

====

Biological target: Cytochrome P450 1A2 (Homo sapiens, UniProt P05177)
Sequence (P05177 whole entry): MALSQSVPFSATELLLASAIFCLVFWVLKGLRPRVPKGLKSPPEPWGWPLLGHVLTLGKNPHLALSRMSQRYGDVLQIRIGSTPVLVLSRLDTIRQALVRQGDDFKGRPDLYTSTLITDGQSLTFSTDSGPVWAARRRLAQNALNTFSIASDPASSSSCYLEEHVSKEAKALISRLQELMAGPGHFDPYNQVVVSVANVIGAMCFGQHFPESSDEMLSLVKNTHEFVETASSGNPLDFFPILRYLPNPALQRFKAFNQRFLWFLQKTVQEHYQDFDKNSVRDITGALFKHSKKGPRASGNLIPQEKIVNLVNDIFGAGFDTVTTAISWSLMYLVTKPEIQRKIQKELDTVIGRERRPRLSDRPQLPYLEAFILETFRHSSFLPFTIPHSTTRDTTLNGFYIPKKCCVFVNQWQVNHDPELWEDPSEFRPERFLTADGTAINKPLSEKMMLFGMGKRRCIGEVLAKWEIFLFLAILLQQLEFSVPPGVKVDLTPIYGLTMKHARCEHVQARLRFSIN
pIC50: −log10 of the molar value.
reported.metric: pIC50

Query pIC50 for `O=C(O)[C@H](Cc1ccc(-n2c(-c3cccnc3)nc3cccnc32)cc1)NC1=C(Br)C(=O)C12CCCCC2`
< 4.00

====

Biological target: Integrin alpha-4/beta-1 (Homo sapiens, UniProt P05556+P13612)
Assay: Inhibition of integrin alpha4beta1 receptor in human whole blood by flow cytometry
reported.metric: IC50 (nM)

1. O=C(O)[C@H](Cc1ccc(-n2c(C3COCCN3)nc3cccnc32)cc1)NC1=C(Br)C(=O)C12CCCCC2 (stereo partly specified)    10
2. O=C(O)[C@H](Cc1ccc(-n2c(-c3ccc(C(F)(F)F)nc3)nc3cccnc32)cc1)NC1=C(Br)C(=O)C12CCCCC2    8
3. N#CCc1nc2cccnc2n1-c1ccc(C[C@H](NC2=C(Br)C(=O)C23CCCCC3)C(=O)O)cc1    10

[P] CC(C)Cc1nc2cccnc2n1-c1ccc(C[C@H](NC2=C(Br)C(=O)C23CCCCC3)C(=O)O)cc1
[Q] CC1(C)C(=O)C=C1N[C@@H](Cc1ccc(-n2c(-c3cccnc3)nc3cccnc32)cc1)C(=O)O
Exercise: compare P and Q ; which one has the greater IC50? State the label of the item chosen.
Q
